# System: MzmL
# Construct: full-length ORF (304 residues, predicted 16-residue signal peptide MKKLIILLITLSLFVA included in the clone), N-terminal His6 tag kept (pET-28a), E. coli BL21(DE3), Ni-NTA, ~35 kDa
# TEST_NAME: pH-indicator (bromothymol blue) assay of lactone hydrolysis, OD630, Michaelis-Menten fit
# Assay type: biochemical, Mesoflavibacter zeaxanthinifaciens
# MEASUREMENT_SETUP: 2.5 mM MOPS pH 7.1; 25°C in methods, 28°C in table footnote; 5 nM enzyme; read-out: Km (mM)/Mean ± SD
Please assign no whenever Km is at or above 0.08 mM, and yes whenever it is below.

Decide: Km of `CCCCCCCC(=O)CC(=O)N[C@H]1CCOC1=O` strictly below 0.08 mM?
no

Lab log: compare recorded Km with 0.08 mM; is it strictly lower for `CCCCCC(=O)N[C@H]1CCOC1=O` ?
no

hey, is Km for `CCCCCC(=O)CC(=O)N[C@H]1CCOC1=O` lower than 0.08 mM or not?
no

Hello, I'm reviewing records and need to know if Km of `CCCCCCCCCC(=O)N[C@H]1CCOC1=O` is below 0.08 mM. Could you check?
yes
